- experimental protocol: Selectivity index, ratio of CC50 for monkey LLC-MK2 cells to EC50 for Enterovirus A71
- Assay type: toxicity
- setup conditions: read-out: Ratio CC50/EC50
measured parameter: selectivity ratio

- compound structure string: "CC(C)n1ncc2c(C(=O)Nc3ccccc3F)cc(-c3cccs3)nc21"
  value qualifier: "="
  reported value: 21.7
- compound structure string: "CC(C)n1ncc2c(C(=O)Nc3cccnc3)cc(-c3ccsc3)nc21"
  value qualifier: "="
  reported value: 15.4
- compound structure string: "CC(C)n1ncc2c(C(=O)Nc3ccncn3)cc(-c3ccsc3)nc21"
  value qualifier: ">"
  reported value: 250
- compound structure string: "CC(C)n1ncc2c(C(=O)Nc3cccc(C(N)=O)c3)cc(-c3cccs3)nc21"
  value qualifier: "="
  reported value: 31.3
- compound structure string: "CC(C)n1ccc2c(C(=O)Nc3ccccn3)cc(-c3cccs3)nc21"
  value qualifier: ">"
  reported value: 167

---

# key: entry, value: pEC50
- Tested on: Poliovirus 1
- experimental protocol: Antiviral activity against Poliovirus 1 infected in human HeLa-RW cells assessed as protection against virus-induced cytopathic effect after 3 to 4 days by crystal violet staining-based spectrophotometric method
- Format: functional, cell-based
- setup conditions: Enterovirus C
pEC50: −log10 of the molar value.
measured parameter: pEC50

- compound structure string: "CC(C)n1ncc2c(C(=O)Nc3ccccn3)cc(-c3ccccc3)nc21"
  reported value: "< 4.60"
- compound structure string: "CC(C)n1ncc2c(C(=O)Nc3ccc(S(N)(=O)=O)cc3)cc(-c3cccs3)nc21"
  reported value: "< 5.00"
- compound structure string: "CC(C)n1ncc2c(C(=O)Nc3ccc(F)cc3Br)cc(-c3cccs3)nc21"
  reported value: "< 5.00"
- compound structure string: "CC(C)n1ncc2c(C(=O)Nc3ccccn3)cc(-c3cccs3)nc21"
  reported value: "< 5.00"
- compound structure string: "CC(C)n1ncc2c(C(=O)N(C)c3ccccn3)cc(-c3cccs3)nc21"
  reported value: "< 5.00"
- compound structure string: "CC(C)n1ncc2c(C(=O)Nc3cccnc3)cc(-c3cccs3)nc21"
  reported value: 5.00
- compound structure string: "CC(C)n1ncc2c(C(=O)Nc3cccnc3)cc(-c3ccsc3)nc21"
  reported value: "< 5.00"
- compound structure string: "CC(C)n1ncc2c(C(=O)Nc3cncnc3)cc(-c3cccs3)nc21"
  reported value: 5.00
- compound structure string: "CC(C)n1ncc2c(C(=O)Nc3ccc(F)c(S(N)(=O)=O)c3)cc(-c3cccs3)nc21"
  reported value: "< 5.00"
- compound structure string: "CC(C)n1ncc2c(C(=O)Nc3ccccc3F)cc(-c3cnco3)nc21"
  reported value: "< 5.00"
- compound structure string: "CC(C)n1ncc2c(S(=O)(=O)Nc3ccc(F)cc3)cc(-c3cccs3)nc21"
  reported value: "< 5.00"
- compound structure string: "CC(C)n1ccc2c(C(=O)Nc3cccnc3)cc(-c3cccs3)nc21"
  reported value: "< 5.00"
- compound structure string: "CC(C)n1ncc2c(C(=O)Nc3ccc(F)cc3)cc(C3CC3)nc21"
  reported value: "< 4.60"
- compound structure string: "CC(C)n1ncc2c(C(=O)Nc3ccc(F)cn3)cc(-c3cccs3)nc21"
  reported value: "< 5.00"
- compound structure string: "CC(C)n1ccc2c(C(=O)Nc3ccc(F)cc3)cc(-c3cccs3)nc21"
  reported value: "< 4.60"
- compound structure string: "CC(C)n1ncc2c(C(=O)Nc3ccccc3C(F)(F)F)cc(-c3cccs3)nc21"
  reported value: "< 5.00"
- compound structure string: "CC(C)n1ncc2c(NC(=O)c3ccc(F)cc3)cc(-c3cccs3)nc21"
  reported value: "< 5.00"
- compound structure string: "CC(C)n1ncc2c(C(=O)Nc3ccccn3)cc(-c3ccsc3)nc21"
  reported value: "< 5.00"
- compound structure string: "CC(C)n1ncc2c(C(=O)Nc3cc(F)ccc3F)cc(-c3cccs3)nc21"
  reported value: "< 4.60"
- compound structure string: "CC(C)n1ncc2c(C(=O)Nc3cccc(S(=O)(=O)N(C)C)c3)cc(-c3cccs3)nc21"
  reported value: "< 5.00"
- compound structure string: "CC(C)n1ncc2c(C(=O)Nc3c(F)cc(F)cc3F)cc(-c3cccs3)nc21"
  reported value: "< 4.60"
- compound structure string: "CC(C)n1ncc2c(-c3nc4ccc(F)cc4o3)cc(-c3cccs3)nc21"
  reported value: "< 5.00"
- compound structure string: "CC(C)n1ncc2c(C(=O)Nc3ccccc3F)cc(-c3ccccn3)nc21"
  reported value: "< 4.60"
- compound structure string: "CC(C)n1ncc2c(C(=O)Nc3ccccc3F)cc(-c3cncs3)nc21"
  reported value: "< 4.60"
- compound structure string: "CNS(=O)(=O)c1cccc(NC(=O)c2cc(-c3cccs3)nc3c2cnn3C(C)C)c1"
  reported value: "< 5.00"
- compound structure string: "CC(C)n1ncc2c(C(=O)Nc3ccncc3)cc(-c3ccsc3)nc21"
  reported value: "< 5.00"
- compound structure string: "CC(C)n1ncc2c(C(=O)Nc3ccc(F)cc3)cc(-c3ccsc3)nc21"
  reported value: "< 4.60"
- compound structure string: "CC(C)n1ncc2c(C(=O)Nc3cccc(S(N)(=O)=O)c3)cc(-c3cccs3)nc21"
  reported value: 5.30
- compound structure string: "CC(C)n1ncc2c(NS(=O)(=O)c3ccc(F)cc3)cc(-c3cccs3)nc21"
  reported value: "< 5.00"
- compound structure string: "CC(C)n1ncc2c(C(=O)Nc3ccccc3F)cc(-c3ccncc3)nc21"
  reported value: "< 4.60"
- compound structure string: "CC(C)n1ncc2c(C(=O)Nc3ccccn3)cc(C3CC3)nc21"
  reported value: "< 4.60"
- compound structure string: "CC(C)n1ncc2c(C(=O)Nc3cccc(S(N)(=O)=O)c3)cc(C3CC3)nc21"
  reported value: "< 5.00"
- compound structure string: "CC(C)n1nnc2c(C(=O)Nc3ccc(F)cc3)cc(-c3cccs3)nc21"
  reported value: "< 5.00"
- compound structure string: "CC(C)n1ncc2c(C(=O)Nc3ccccc3F)cc(-c3nccs3)nc21"
  reported value: "< 5.00"
- compound structure string: "CC(C)n1ncc2c(C(=O)N3CCc4cccnc43)cc(-c3cccs3)nc21"
  reported value: "< 5.00"
- compound structure string: "CC(C)n1ncc2c(C(=O)Nc3c(F)cccc3F)cc(-c3cccs3)nc21"
  reported value: "< 4.60"
- compound structure string: "CC(C)n1ncc2c(C(=O)Nc3ccc(F)cc3F)cc(-c3cccs3)nc21"
  reported value: "< 4.60"
- compound structure string: "CC(C)n1ncc2c(C(=O)Nc3ccccc3S(N)(=O)=O)cc(-c3cccs3)nc21"
  reported value: "< 4.60"
- compound structure string: "CC(C)n1ncc2c(C(=O)Nc3ccc(F)cc3)nc(-c3cccs3)nc21"
  reported value: "< 5.00"
- compound structure string: "CC(C)n1ncc2c(C(=O)Nc3ncccn3)cc(-c3cccs3)nc21"
  reported value: "< 5.00"
- compound structure string: "CC(C)n1ncc2c(C(=O)Nc3ccccc3F)cc(-c3cccs3)nc21"
  reported value: 5.15
- compound structure string: "CC(C)n1cnc2c(C(=O)Nc3ccc(F)cc3)cc(-c3cccs3)nc21"
  reported value: "< 5.00"
